Values compiled from the DeepSol protein solubility set.

experiment_summary: soluble on expression in E. coli; label from the status in PepcDB or PDB records

sequence_code	soluble on expression in E. coli
MSLKNLQCELDWERRFDGMQQHLGQHLLSGCFYDLFGANTCGFHLGKEISTVDIVGFLDEKTIREAEKEANRLIFENLEVKSYAPSKKELKKVKTRRALPKTDEEIRIVEIVGLDLNACCGVHPRNTRDLQVIKIRRWEKHKNATRIEYVAGNRAVSEGHHHHHH	not soluble
MGSDKIHHHHHHMVQISETSSELIQLLRIENSAPEVLQILDHADSRYIRDLKVNVSNALVTAHISEKESALLALSIAANQKNNILISGFQKLSAEKGATIEEQNEAISCASLLAGNNVFYRFRHFQQKESYNTMQAKIKMNIMMKPVLGKEFFELISLAVSAVNGCEMCVNAHEHSVREMGATEERVWDAIRLAAVITSLDKVMS	not soluble
SAESENVSNNISLYSEETVILDVKGKNKTDVIDEMIGILDKSGVLLDKKKFKEEILKREEISSTGFGMGIAIPHAKTDAVKVPRVAVGVSKEGFDFESEDGSLAHIIFMIAATDNGDNLHLKTLSQLSSKLMNEEFLNELLNSKTSREIVSKLNNEEIKSV	not soluble
MGSDKIHHHHHHMEQCNERPKVSVIIPVYNTCNYVQEALESICQQTLEELEIIVIDDGSTDCSRAIVEEIAIKDTRIQVYKQSNQGLSITRNQGLKFSTGEYIYFMDSDDFLEPDALELCYRKCTKEALDFVFFDAETFTIEPNIPESSFDYQRTLDLPEKICSGIDMLKTQLKTYKFKSSVCLNLFHREFICEERLSFYPGILHEDQLFMIQAYLHASKTGFIRRSFFHRRIRTNSIMTKKFTWKNMEGYLTVTNELLRELPIYPKTYHHTIFFFLRQMLDAAVWQAHTLSLPQRIKLFSLCLKYYRPYVTMRTLMVLLLKTSIHPRQ	not soluble
MHHHHHHSSGRENLYFQGMAKERRRAVLELLQRPGNARCADCGAPDPDWASYTLGVFICLSCSGIHRNIPQVSKVKSVRLDAWEEAQVEFMASHGNDAARARFESKVPSFYYRPTPSDCQLLREQWIRAKYERQEFIYPEKQEPYSAGYREGFLWKRGRDNGQFLSRKFVLTEREGALKYFNRNDAKEPKAVMKIEHLNATFQPAKIGHPHGLQVTYLKDNSTRNIFIYHEDGKEIVDWFNALRAARFHYLQVAFPGASDADLVPKLSRNYLKEGYMEKTGPKQTEGFRKRWFTMDDRRLMYFKDPLDAFARGEVFIGSKESGYTVLHGFPPSTQGHHWPHGITIVTPDRKFLFACETESDQREWVAAFQKAVDRPMLPQEYAVEAHFKHKP	soluble
SFHGIPATPGIGAPGNKPELYEEVKLYKNAREREKYDNMAELFAVVKTMQALEKAYIKDCVSPSEYTAACSRLLVQYKAAFRQVQGSEISSIDEFCRKFRLDCPLAMERIKEDRPITIKDDKGNLNRCIADVVSLFITVMDKLRLEIRAMDEIQPDLRELMETMHRMSHLPPDFEGRQTVSQWLQTLSGMSASDELDDSQVRQMLFDLESAYNAFNRFLHA	soluble
GPGSMNRLFGRKKDTQKPTLEDASVKIGARCDAVDARVSKIDAELAKLKECIQRTTGATQQRHKQRAIQLLQQKRLYQNQQDVLMQQQFNIDQLQFTTESVKDAKLQVDAMKDATKTLKREFKKMSVADVEKLQDELLNLYEDAQYVQEAMGRSYDVPDSIDEDEMLGELEALAMQSGNEADSSYLSDALAMPSGRLPDLMSNTQQQQETETPDPYKLETQLGL	not soluble
